assayTarget: KCNQ2/3 (Homo sapiens, UniProt O43525+O43526)
Construct: expressed in transfected cells; host or cells: CHO cells (hKCNQ-CHO)
measurementProtocol: Half-maximal activation voltage left shift assay (whole-cell patch clamp, hKCNQ-CHO cells)
Format: cell-based
conditionLabel: test concentration 50 nM
Method: Example 65: Half-Maximal Activation Voltage Left Shift Assay hKCNQ-CHO cells were cultured at 37° C. in a humidified environment of 5% CO2. • a) Extracellular fluid (mM): NaCl 145, KCl 4, CaCl2 2, MgCl2 1, Glucose 10, HEPES 10. […] Whole-cell patch clamp was performed at room temperature. The electrical signals recorded with the EPC 10 USB amplifier (HEKA Elektronik, Germany) were filtered by a 3 kHz low-pass filter, and finally recorded in PatchMaster 2×90.5 software (HEKA Elektronik, Germany). […]
Examples of molecules with documented V1/2 Shift (mV) follow.
quantityKind: V1/2 Shift (mV)

Cc1cc(N2CCc3cc(F)ccc3C2)cc(C)c1NC(=O)CC(C)(C)C [Xen-1101, reference compound]
−5.48
Cc1cc(N2CCCc3cc(OC(C)C(F)(F)F)ccc3C2)cc(C)c1NC(=O)CC(C)(C)C (stereo not drawn)
−23.38
Cc1cc(N2CCCc3cc(OC(C)C)c(F)cc3C2)cc(C)c1NC(=O)CC(C)(C)C
−16.46
